Values compiled from patent US20130230459A1.

test: Biodistribution studies of 11C tracers; type: in vivo, Wistar rats; conditions: 60 min p.i.
Recorded % ID Striatum by entry
Note: unit % ID is implicit; provide only the numeric part.

Some entries whose results are on file:
[Q] What % ID Striatum value was documented for this compound, [11CH3]Oc1cc(F)cc(F)c1C1CCN(c2ccn3c(CC4CC4)nnc3c2Cl)CC1 [[^11C]B-7] ?
[A] 0.026

[Q] Proceed to [11CH3]Oc1ccc(F)c(F)c1C1CCN(c2ccn3c(CC4CC4)nnc3c2Cl)CC1 [[^11C]B-10]
[A] 0.035

[Q] Proceed to [11CH3]Oc1c(F)ccc(F)c1C1CCN(c2ccn3c(CC4CC4)nnc3c2Cl)CC1 [[^11C]B-2]
[A] 0.033

---
[Q] What % ID Striatum value was documented for this compound, [11CH3]Oc1ccc(F)cc1C1CCN(c2ccn3c(CC4CC4)nnc3c2Cl)CC1 [[^11C]B-4] ?
[A] 0.029

[Q] Proceed to [11CH3]Oc1c(F)ccc(F)c1C1CCN(c2ccn3c(CC4CC4)nnc3c2C(F)(F)F)CC1 [[^11C]B-3]
[A] 0.036

[Q] Proceed to [11CH3]Oc1cccc(F)c1C1CCN(c2ccn3c(CC4CC4)nnc3c2Cl)CC1 [[^11C]B-6]
[A] 0.031

###

test: Biodistribution studies of 11C tracers; assay type: in vivo, Wistar rats; details: at all time points examined
Recorded % ID present in the carcass by entry

Some entries whose results are on file:
[Q] What % ID present in the carcass value was documented for this compound, [11CH3]Oc1c(F)ccc(F)c1C1CCN(c2ccn3c(CC4CC4)nnc3c2C(F)(F)F)CC1 [[^11C]B-3] ?
[A] ~42 % ID

[Q] Proceed to [11CH3]Oc1c(F)ccc(F)c1C1CCN(c2ccn3c(CC4CC4)nnc3c2Cl)CC1 [[^11C]B-2]
[A] ~50 % ID

[Q] Proceed to [11CH3]Oc1cccc(F)c1C1CCN(c2ccn3c(CC4CC4)nnc3c2Cl)CC1 [[^11C]B-6]
[A] ~54 % ID

Please look at the following compound next.
[Q] What % ID present in the carcass value was documented for this compound, [11CH3]Oc1ccc(F)cc1C1CCN(c2ccn3c(CC4CC4)nnc3c2Cl)CC1 [[^11C]B-4] ?
[A] ~56 % ID

###

assay: Biodistribution studies of 11C tracers; assay type: in vivo, Wistar rats; conditions: 60 min p.i.
measurement_kind: % ID Kidneys (% ID)
Note: unit % ID is implicit; provide only the numeric part.

[Q] What % ID Kidneys value was documented for this compound, [11CH3]Oc1ccc(F)cc1C1CCN(c2ccn3c(CC4CC4)nnc3c2Cl)CC1 [[^11C]B-4] ?
[A] 2.9

###

test: Biodistribution studies of 11C tracers; assay type: in vivo, Wistar rats; settings: 60 min p.i.
measurement_kind: % ID Cerebrum total (% ID)
Note: unit % ID is implicit; provide only the numeric part.

Some entries whose results are on file:
[Q] What % ID Cerebrum total value was documented for this compound, [11CH3]Oc1cc(F)cc(F)c1C1CCN(c2ccn3c(CC4CC4)nnc3c2Cl)CC1 [[^11C]B-7] ?
[A] 0.543

[Q] Proceed to [11CH3]Oc1c(F)ccc(F)c1C1CCN(c2ccn3c(CC4CC4)nnc3c2C(F)(F)F)CC1 [[^11C]B-3]
[A] 0.499

[Q] Proceed to [11CH3]Oc1c(F)ccc(F)c1C1CCN(c2ccn3c(CC4CC4)nnc3c2Cl)CC1 [[^11C]B-2]
[A] 0.558

[Q] Proceed to [11CH3]Oc1ccc(F)c(F)c1C1CCN(c2ccn3c(CC4CC4)nnc3c2Cl)CC1 [[^11C]B-10]
[A] 0.598

[Q] Proceed to [11CH3]Oc1ccc(F)cc1C1CCN(c2ccn3c(CC4CC4)nnc3c2Cl)CC1 [[^11C]B-4]
[A] 0.596

Please look at the following compound next.
[Q] What % ID Cerebrum total value was documented for this compound, [11CH3]Oc1cccc(F)c1C1CCN(c2ccn3c(CC4CC4)nnc3c2Cl)CC1 [[^11C]B-6] ?
[A] 0.597
